// provenance: paper PMC11945486

- TESTED SYSTEM: human TAS1R2-A574T/TAS1R3-WT (Homo sapiens, UniProt Q7RTX0+Q8TE23, A574T)
- ASSAY METHOD TEXT: Calcium mobilisation assay, TAS1R2 variant A574T with TAS1R3-WT
pEC50: −log10 of the molar value.
MEASUREMENT KIND: pEC50

Solved cases below.
O=S(=O)(O)NC1CCCCC1 [Cyclamate, cyclamate]	2.75
C=C1C[C@@]23CC[C@H]4[C@@](C)(CCC[C@@]4(C)C(=O)O[C@@H]4O[C@H](CO)[C@@H](O)[C@H](O[C@@H]5O[C@H](CO)[C@@H](O)[C@H](O)[C@H]5O)[C@H]4O[C@@H]4O[C@H](CO)[C@@H](O)[C@H](O)[C@H]4O)[C@@H]2CC[C@]1(O[C@@H]1O[C@H](CO)[C@@H](O)[C@H](O[C@@H]2O[C@H](CO)[C@@H](O)[C@H](O)[C@H]2O)[C@H]1O[C@@H]1O[C@H](CO)[C@@H](O)[C@H](O)[C@H]1O)C3 [Rebaudioside M, rebaudioside M]	4.79

[I] OC[C@H]1O[C@H](O[C@]2(CCl)O[C@H](CCl)[C@@H](O)[C@@H]2O)[C@H](O)[C@@H](O)[C@H]1Cl [Sucralose]
[II] C=C(C)[C@@H]1CC=C(/C=N/O)CC1 [Perillartine, perillartine]
Q. Hi there, can you help? I need to know whether I or II has lower measured pEC50. Returns: label corresponding to the selected item.
A. I

====

- TESTED SYSTEM: human TAS1R2-R317G (subunit alone) (Homo sapiens, UniProt Q8TE23, R317G)
- ASSAY METHOD TEXT: Calcium mobilisation assay, TAS1R2-R317G subunit alone
MEASUREMENT KIND: EC50 (µM)
Express it in µM; write the number only.

In plain terms, C=C(C)[C@@H]1CC=C(/C=N/O)CC1 [Perillartine, perillartine] has a documented EC50 of 225

====

- TESTED SYSTEM: human TAS1R2-WT/TAS1R3-T716M (Homo sapiens, UniProt Q7RTX0+Q8TE23, T716M)
- Construct: expressed in transfected cells; host or cells: HEK293T stably expressing Gα16gust44
- Sequence (Q8TE23 20-839): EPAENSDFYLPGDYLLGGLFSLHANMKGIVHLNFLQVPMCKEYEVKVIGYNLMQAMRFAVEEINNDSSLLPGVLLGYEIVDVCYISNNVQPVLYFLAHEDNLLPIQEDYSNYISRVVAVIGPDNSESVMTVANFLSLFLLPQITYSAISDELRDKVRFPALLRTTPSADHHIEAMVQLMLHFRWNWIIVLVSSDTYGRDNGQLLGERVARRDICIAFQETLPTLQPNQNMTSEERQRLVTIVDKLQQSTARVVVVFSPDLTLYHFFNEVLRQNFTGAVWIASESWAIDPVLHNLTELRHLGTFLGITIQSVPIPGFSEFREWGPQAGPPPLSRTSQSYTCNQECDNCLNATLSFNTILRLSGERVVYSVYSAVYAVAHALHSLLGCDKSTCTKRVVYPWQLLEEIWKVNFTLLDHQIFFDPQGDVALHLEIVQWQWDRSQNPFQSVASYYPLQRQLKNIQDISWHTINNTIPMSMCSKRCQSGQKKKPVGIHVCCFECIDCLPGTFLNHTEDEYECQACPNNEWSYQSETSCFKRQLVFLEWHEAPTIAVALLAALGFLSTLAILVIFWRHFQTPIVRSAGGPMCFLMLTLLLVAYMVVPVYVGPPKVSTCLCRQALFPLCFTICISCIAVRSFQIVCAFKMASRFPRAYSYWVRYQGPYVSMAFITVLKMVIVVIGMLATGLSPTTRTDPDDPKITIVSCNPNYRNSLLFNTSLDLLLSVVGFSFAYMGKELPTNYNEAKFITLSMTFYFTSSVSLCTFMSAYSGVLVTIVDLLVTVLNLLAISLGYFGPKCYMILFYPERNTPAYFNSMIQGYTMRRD
- Sequence (Q7RTX0 21-852 T716M): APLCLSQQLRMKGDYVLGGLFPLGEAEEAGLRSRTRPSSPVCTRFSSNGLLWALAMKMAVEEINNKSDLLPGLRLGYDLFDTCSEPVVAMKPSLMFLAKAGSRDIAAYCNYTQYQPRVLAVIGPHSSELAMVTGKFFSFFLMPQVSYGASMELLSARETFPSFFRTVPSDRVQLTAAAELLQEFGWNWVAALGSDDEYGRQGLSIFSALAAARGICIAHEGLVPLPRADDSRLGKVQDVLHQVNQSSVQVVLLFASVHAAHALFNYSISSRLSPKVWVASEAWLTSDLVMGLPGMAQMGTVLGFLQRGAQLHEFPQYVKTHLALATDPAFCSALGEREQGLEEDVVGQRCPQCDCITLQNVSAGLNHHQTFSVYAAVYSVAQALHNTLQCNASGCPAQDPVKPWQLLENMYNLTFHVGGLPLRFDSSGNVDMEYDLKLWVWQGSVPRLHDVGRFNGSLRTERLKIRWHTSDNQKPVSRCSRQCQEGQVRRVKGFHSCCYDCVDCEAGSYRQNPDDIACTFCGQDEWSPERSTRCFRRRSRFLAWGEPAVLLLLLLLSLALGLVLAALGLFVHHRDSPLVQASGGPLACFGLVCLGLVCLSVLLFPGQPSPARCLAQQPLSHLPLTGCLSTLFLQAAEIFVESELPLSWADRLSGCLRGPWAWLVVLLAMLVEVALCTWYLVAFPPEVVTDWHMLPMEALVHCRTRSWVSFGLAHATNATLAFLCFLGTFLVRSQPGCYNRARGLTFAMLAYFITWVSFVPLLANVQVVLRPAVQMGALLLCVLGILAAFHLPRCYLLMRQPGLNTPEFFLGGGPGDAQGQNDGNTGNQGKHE
- ASSAY METHOD TEXT: Calcium mobilisation assay, TAS1R2-WT with TAS1R3 variant T716M
- Format: cell-based
- CONDITION SUMMARY: maximal signal amplitude
MEASUREMENT KIND: Max ΔF/F0

Solved cases below.
C=C1C[C@@]23CC[C@H]4[C@@](C)(CCC[C@@]4(C)C(=O)O[C@@H]4O[C@H](CO)[C@@H](O)[C@H](O[C@@H]5O[C@H](CO)[C@@H](O)[C@H](O)[C@H]5O)[C@H]4O[C@@H]4O[C@H](CO)[C@@H](O)[C@H](O)[C@H]4O)[C@@H]2CC[C@]1(O[C@@H]1O[C@H](CO)[C@@H](O)[C@H](O[C@@H]2O[C@H](CO)[C@@H](O)[C@H](O)[C@H]2O)[C@H]1O[C@@H]1O[C@H](CO)[C@@H](O)[C@H](O)[C@H]1O)C3 [Rebaudioside M, rebaudioside M]	1.10
C[C@H](CC[C@@H](O[C@@H]1O[C@H](CO[C@@H]2O[C@H](CO)[C@@H](O)[C@H](O)[C@H]2O)[C@@H](O)[C@H](O)[C@H]1O[C@@H]1O[C@H](CO)[C@@H](O)[C@H](O)[C@H]1O)C(C)(C)O)[C@H]1CC[C@@]2(C)[C@@H]3CC=C4[C@@H](CC[C@H](O[C@@H]5O[C@H](CO[C@@H]6O[C@H](CO)[C@@H](O)[C@H](O)[C@H]6O)[C@@H](O)[C@H](O)[C@H]5O)C4(C)C)[C@]3(C)[C@H](O)C[C@]12C [Mogroside V, mogroside V]	1.01

[P] C=C(C)[C@@H]1CC=C(/C=N/O)CC1
[Q] OC[C@H]1O[C@H](O[C@]2(CCl)O[C@H](CCl)[C@@H](O)[C@@H]2O)[C@H](O)[C@@H](O)[C@H]1Cl
Q. Hi there, can you help? I need to know whether P or Q has lower measured Max ΔF/F0. Returns: label corresponding to the selected item.
A. Q
